# Test system: Staphylococcus aureus
# method.summary: Antibacterial activity against Staphylococcus aureus after 24 hrs by MTT based microdilution assay
# Format: functional
attribute.measured: MIC (µg/mL)

{"columns": ["compound", "unit.tag", "MIC"],
 "data": [
  ["COc1ccc(C2COc3c(C/C=C(\\C)CCC=C(C)C)c(O)cc(O)c3C2=O)c(O)c1O (racemic)", "µg/mL", 5]
]}

[P] COc1ccc(C2COc3c(C/C=C(/C)CCC=C(C)C)c(O)cc(O)c3C2=O)c(O)c1O (racemic)
[Q] CN[C@@H]1[C@@H](O[C@H]2O[C@H](CO)[C@@H](N)[C@H](O)[C@H]2O)O[C@H]2C[C@@H](N)[C@@H](O[C@H]3[C@H](O)[C@@H](O)[C@H](N)C[C@@H]3N)O[C@@H]2[C@@H]1O
Qu. Response body: label of entry with the larger MIC; valid values P , Q . Please identify the chosen entry by its label.
Ans. Q
